Collected normalized growth values appear next to each entry.
assay: chemical genetic growth profiling, strain panel (AID 1159580);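 note: tested at 20 µM; growth read once vehicle control cultures reached saturation at 30 °C; 1 = growth at the plate median or of vehicle wells; lower values mean less growth of the strain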; conditions: S. cerevisiae deletion strains, growth OD, locus YMR231W, strain pep5, stronger effect = lower value
Out of some 5,500 compounds screened, about 2,000 (36%) were called active. Inconclusive results (about 18%) are left out. Some of the results follow.

Below are worked cases with known answers.
OC[C@@H](O)[C@@H](O[C@@H]1O[C@H](CO)[C@@H](O)[C@H](O)[C@H]1O)[C@H](O)[C@@H](O)CO; 0.983 (inactive)
O=C(O)c1ccccc1Nc1ccccc1; 0.933 (inactive)
C=CC(C1=CC(=O)C(OC)=CC1=O)c1ccccc1 (stereo unspecified); 1.01 (inactive)
OC[C@@H]1CCCN2CCCC[C@H]12; 1.04 (inactive)
CNC[C@@H](O)c1ccc(O)c(O)c1; 0.999 (inactive)
O=C(NC(=O)c1c(F)cccc1F)Nc1ccc(Cl)cc1; 1.03 (inactive)

Now examine the next entry.
normalized growth recorded for this compound, C=CC(C1=CC(=O)C(OC)=CC1=O)c1ccc(O)cc1 (stereo unspecified) , is 1.01 (inactive)
